- Tested on: Fibrinogen (Alexa647-labelled)
- TEST METHOD NOTES: fibrinogen binders on compound microarrays, profiling panel, artefact control for SMM control-protein annotation, biochemical, small-molecule microarray, 635/667 nm fluorescence (AID 1131);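 further: z-score merges 667 nm fluorescence with per-spot signal-to-noise over triplicate slides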
- ASSAY SETUP: fibrinogen-A647 binding fluorescence, higher = more signal
Label scheme, based on composite z-score: one: < 0.3; two: ≥ 0.3 and < 0.8; three: ≥ 0.8

# bin lookup: classify COCCCN1C(=O)[C@@]2(Cc3ccccc31)c1ccccc1C(=O)N(Cc1ccccc1OC)[C@H]2c1ccc(CO)cc1 by its composite z-score
one

# bin lookup: classify COC(=O)[C@@]1(Cc2ccc(F)cc2)[C@H]2c3cc(C(=O)N(C)C)n(CCn4cc([N+](=O)[O-])nc4C)c3C[C@H]2CN1C(=O)c1ccccc1 by its composite z-score
three

In plain terms, what class is COc1cc2c(cc1O)C(C1CC1)N(Cc1ccc([N+](=O)[O-])o1)CC2 (stereo unspecified) ?
two

Would you mind sorting COCCOC(=O)N1C(=O)[C@@]2(c3cc(C#CC4(O)CCCCCC4)ccc31)[C@H](c1ccc(OCCO)cc1)N1[C@H](c3ccccc3)[C@H](c3ccccc3)OC(=O)[C@H]1[C@@H]2C(N)=O into the appropriate category?
three

Which class holds Cc1ccc(F)cc1S(=O)(=O)N[C@@H]1CCN(Cc2ccc3[nH]ccc3c2)C1 ?
one

Categorize the following entry: NC(=O)N1C(=O)C2C(C1=O)C1C=C(CCCO)C2C(c2ccc(CN3CCCC3)cc2)N1Cc1cccc(OC(F)(F)F)c1 (stereo unspecified)
two

Band for COCCOC(=O)N1C(=O)[C@@]2(c3cc(C#CC4=CCCCC4)ccc31)[C@H](c1ccccc1OCCO)N1[C@H](c3ccccc3)[C@H](c3ccccc3)OC(=O)[C@H]1[C@@H]2C(N)=O ?
three

Into which category would you place CC(C)=CCN(C(=O)C#Cc1ccccc1)[C@H](CO)c1ccccc1 ?
one

// bin(item) where item = CCc1cccc(NC(=O)O[C@H]2[C@H](OC(=O)Nc3ccc4c(c3)OCO4)[C@H](OC(=O)Nc3ccc4c(c3)OCO4)[C@@H](OC)O[C@@H]2CO)c1
three

Assign a bin to COC(=O)[C@@]1(CCS(=O)(=O)c2ccccc2)N=C(c2ccc(OCCCO)cc2)O[C@H]1c1ccccc1N=[N+]=[N-]
two

Lab log: C#CCN([C@H](/C=C/C1CC1)[C@@H](O)Cc1ccccc1)[C@@H](Cc1ccccc1)C(=O)OC — assign composite z-score category
one

Class for CC(C)[C@@H](C(=O)O)n1cc(-c2ccccc2)nn1 ?
three

Using the reported composite z-score, which band applies to O=C1c2ccccc2[C@@]2(Cc3ccccc3N(Cc3ccccc3)C2=O)[C@H](c2ccc(CO)cc2)N1Cc1ccccc1 ?
one

Sort into band: CCCCC(=C=CC[C@@H](O)c1ccc(OCCO)cc1)C[C@@H](O)c1ccccn1
one

Quick check: band for CC(C)C[C@@H]1NC(=O)[C@H]2C[C@@H](C(=O)NCCCCCNC(=O)CS)[C@@H](c3ccc(O)cc3)N2C1=O
one

Hey, which category is COc1ccc(NN2C(C(O)c3ccc(OC)cc3)C=CC3C(=O)N(C4CCCCC4)C(=O)C32)cc1 (stereo unspecified) in, do you know?
three

Could you tell me which band C=CCNC(=O)[C@H]1[C@@H]2C(=O)O[C@@H](c3ccccc3)[C@@H](c3ccccc3)N2[C@@H](c2ccccc2OCCO)[C@]12C(=O)N(C(=O)OCCOC)c1ccccc12 belongs to?
three

Classify this compound: [N-]=[N+]=NCc1ccccc1[C@H]1OC(c2ccc(OCCCO)cc2)=N[C@@]1(Cc1ccccc1)C(=O)N1CCOCC1
three

Band for COCCOC(=O)N1C(=O)[C@@]2(c3cc(C#CCCO)ccc31)[C@H](C(=O)N1CCN(c3ncccn3)CC1)[C@H]1C(=O)O[C@H](c3ccccc3)[C@H](c3ccccc3)N1[C@@H]2c1ccc(O)cc1 ?
three

Tag the class for CCCC=C(CCC)[C@@H](NS(=O)(=O)c1ccc(Cl)cc1)c1ccccc1
two

Bin this entry: CCCCC(O)C1C=CC2C(=O)NC(=O)C2N1Nc1ccccn1 (stereo unspecified)
one

Field: class (composite z-score) — entry: O=C1O[C@H](c2ccccc2)[C@H](c2ccccc2)N2[C@H]1[C@@H](C(=O)N1CCN(c3ncccn3)CC1)[C@]1(C(=O)Nc3ccccc31)[C@H]2c1ccc(O)cc1
two

Please report the category associated with C[C@H]1NC(=O)C([C@@H](C)OCc2ccccc2)NC(=O)[C@@]23C(=O)N[C@@H](Cc4ccccc4)C2[C@H](C)[C@@]2(C)O[C@H]2C3/C=C/C/C=C\CNC1=O (stereo partly specified) , nothing else.
one

The entry to classify is CC(C)C(=C=CC[C@@H](O)c1ccc(OCCO)cc1)CCO ; which class holds it?
one

# classify by composite z-score band: C=CC(CO)NC(=O)OCC1c2ccccc2-c2ccccc21 (stereo unspecified)
two

Where would O=C1O[C@@H](c2ccccc2)[C@@H](c2ccccc2)N2[C@@H](c3ccc(OCCO)cc3)[C@]3(C(=O)Nc4ccc(C#CCCO)cc43)[C@@H](C(=O)Nc3nc4ccccc4s3)[C@H]12 land among the classes by reported composite z-score?
three

Which composite z-score band matches CC(C)N1CC=CC23O[C@@H]4C=CCCOC(=O)C4[C@H]2C(=O)N(CCCCCO)[C@@H]3C1=O (stereo partly specified) ?
three

Class for C=CCN1C(=O)[C@]2(O[C@H](CCO)[C@@H]([Si](C)(C)c3ccc(OC)cc3)[C@@H]2C)c2ccccc21 ?
two

Any idea which band COC(=O)C1=CC(CCCO)=CC(c2ccc(CN3CCCC3)cc2)N(Cc2sc3ccccc3c2Cl)C=C1C(=O)OC (stereo unspecified) is in?
three
